- Test system: Aspergillus fumigatus
- procedure-details: Antifungal activity against Aspergillus fumigatus MTCC 2550 after 72 hrs by serial dilution method relative to 11,12-Diphenyl-11a,12-dihydro-11H-indeno[2,1-c][1,5]benzothiazepine
- Format: functional
Friendly reminder: Activity below 60% is Fulfilled, at or above is Not fulfilled.

Worked examples follow.
{"columns": ["compound", "label-class"],
 "data": [
  ["Cc1ccc2c(c1)SC(c1ccccc1)C1C(=N2)c2ccccc2C1c1ccccc1 (centres undefined)", "Fulfilled"],
  ["Cc1ccc(C2Sc3cc(Cl)ccc3N=C3c4ccccc4C(c4ccccc4)C32)cc1 (centres undefined)", "Not fulfilled"],
  ["Clc1ccc(C2Sc3cc(Cl)ccc3N=C3c4ccccc4C(c4ccccc4)C32)cc1 (centres undefined)", "Not fulfilled"],
  ["COc1ccc(C2Sc3ccccc3N=C3c4ccccc4C(c4ccccc4)C32)cc1 (centres undefined)", "Fulfilled"],
  ["Clc1ccc2c(c1)SC(c1ccccc1)C1C(=N2)c2ccccc2C1c1ccccc1 (centres undefined)", "Not fulfilled"],
  ["COc1ccc2c(c1)SC(c1ccccc1)C1C(=N2)c2ccccc2C1c1ccccc1 (centres undefined)", "Fulfilled"],
  ["COc1ccc2c(c1)SC(c1ccc(Cl)cc1)C1C(=N2)c2ccccc2C1c1ccccc1 (centres undefined)", "Not fulfilled"],
  ["Cc1ccc2c(c1)SC(c1ccc(Cl)cc1)C1C(=N2)c2ccccc2C1c1ccccc1 (centres undefined)", "Fulfilled"]
]}

Activity under 60%? Item: Cc1ccc(C2Sc3cc(C)ccc3N=C3c4ccccc4C(c4ccccc4)C32)cc1 (centres undefined)
Fulfilled

Activity under 60%? Item: COc1ccc(C2Sc3cc(Cl)ccc3N=C3c4ccccc4C(c4ccccc4)C32)cc1 (centres undefined)
Not fulfilled

====

- Tested on: Escherichia coli
- procedure-details: Antibacterial activity against Escherichia coli MTCC 42 after 24 hrs by serial dilution method
- Assay type: functional
Reported values of -logMIC for individual entries
Please give the numeric answer without any surrounding text.

Look up -logMIC: Clc1ccc2c(c1)SC(c1ccccc1)C1C(=N2)c2ccccc2C1c1ccccc1 (stereo not given)
1.85

====

- Tested on: Bacillus subtilis
Output 1 (yes) for -logMIC not less than 1; output 0 (no) otherwise.

{"columns": ["compound", "label-class"],
 "data": [
  ["Clc1ccc(C2Sc3ccccc3N=C3c4ccccc4C(c4ccccc4)C32)cc1 (centres undefined)", "1 (yes)"],
  ["COc1ccc2c(c1)SC(c1ccc(Cl)cc1)C1C(=N2)c2ccccc2C1c1ccccc1 (centres undefined)", "1 (yes)"],
  ["COc1ccc(C2Sc3cc(OC)ccc3N=C3c4ccccc4C(c4ccccc4)C32)cc1 (centres undefined)", "1 (yes)"]
]}

Decide: is the reported value of -logMIC for COc1ccc(C2Sc3cc(C)ccc3N=C3c4ccccc4C(c4ccccc4)C32)cc1 (centres undefined) equal to or greater than 1?
1 (yes)

Decide: is the reported value of -logMIC for COc1ccc(C2Sc3ccccc3N=C3c4ccccc4C(c4ccccc4)C32)cc1 (centres undefined) equal to or greater than 1?
0 (no)

Decide: is the reported value of -logMIC for COc1ccc(C2Sc3cc(Cl)ccc3N=C3c4ccccc4C(c4ccccc4)C32)cc1 (centres undefined) equal to or greater than 1?
1 (yes)

Decide: is the reported value of -logMIC for c1ccc(C2Sc3ccccc3N=C3c4ccccc4C(c4ccccc4)C32)cc1 (centres undefined) equal to or greater than 1?
1 (yes)

Decide: is the reported value of -logMIC for COc1ccc2c(c1)SC(c1ccccc1)C1C(=N2)c2ccccc2C1c1ccccc1 (centres undefined) equal to or greater than 1?
1 (yes)
